Catalogue of OD450 readings, one per entry.
- target desc: T1, human CD22-ECD-His protein (human, UniProt P20273 20-687)
- T1 construct: Made in house in HEK293E; also called hCD22-ECD-His; recombinant human CD22-ECD His protein; not shown: His tag
- T1 sequence: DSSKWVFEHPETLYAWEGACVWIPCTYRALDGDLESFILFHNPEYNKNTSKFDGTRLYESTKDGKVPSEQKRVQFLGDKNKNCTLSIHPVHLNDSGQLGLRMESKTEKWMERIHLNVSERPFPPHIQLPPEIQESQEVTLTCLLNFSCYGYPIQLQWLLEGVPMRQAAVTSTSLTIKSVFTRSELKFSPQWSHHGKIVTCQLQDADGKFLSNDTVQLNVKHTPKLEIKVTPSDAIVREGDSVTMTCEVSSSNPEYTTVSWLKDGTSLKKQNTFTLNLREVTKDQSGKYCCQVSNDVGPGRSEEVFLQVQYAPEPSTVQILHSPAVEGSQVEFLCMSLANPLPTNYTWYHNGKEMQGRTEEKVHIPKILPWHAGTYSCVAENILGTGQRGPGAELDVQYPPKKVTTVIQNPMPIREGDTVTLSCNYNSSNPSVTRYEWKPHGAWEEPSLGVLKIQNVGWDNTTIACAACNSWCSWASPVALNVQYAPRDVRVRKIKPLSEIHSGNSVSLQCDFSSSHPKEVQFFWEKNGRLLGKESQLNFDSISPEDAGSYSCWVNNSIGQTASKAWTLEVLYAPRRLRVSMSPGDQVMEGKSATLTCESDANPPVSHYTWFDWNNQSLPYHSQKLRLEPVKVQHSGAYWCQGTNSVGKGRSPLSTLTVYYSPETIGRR
- protocol: ELISA, Ab 100.00 nM
Numbers only; they are read as OD450.

[
  {
    "binder": "HA22-hIgG1 (antibody, V domains shown) VH: EVQLVESGGGLVKPGGSLKLSCAASGFAFSIYDMSWVRQTPEKCLEWVAYISSGGGTTYYPDTVKGRFTISRDNAKNTLYLQMSSLKSEDTAMYYCARHSGYGTHWGVLFAYWGQGTLVTVSA VL: DIQMTQTTSSLSASLGDRVTISCRASQDISNYLNWYQQKPDGTVKLLIYYTSILHSGVPSRFSGSGSGTDYSLTISNLEQEDFATYFCQQGNTLPWTFGCGTKLEIKR",
    "unit string": "OD450",
    "number": 2.65
  },
  {
    "binder": "F2.121.9 (antibody, human IgG1, lambda, V domains shown, Human-murine chimeric IgG1, lambda) VH: EVQLVESGGGLVKPGGSLKLSCAASGFTFSDYVMSWIRQTPEKRLEWVATISDAGSYTFYPDNLKGRFTISRDNAKNNLYLQMNHLTSEDTAFYYCAIIYFGNYGGYWGQGTLVTVSV VL: QAVVTQESALTTSPGGTVVLTCRSNTGAVTTSNYANWVQEKPDHLFTGLIGGTSNRAPGVPVRFSGSLIGDKAALTITGAQTEDDAMYFCALWYSTHWVFGGGTKLTVLG",
    "unit string": "OD450",
    "number": 2.11
  }
]

Fill in the blank: the reported OD450 of F1.120.15 (antibody, human IgG1, kappa, V domains shown, Human-murine chimeric IgG1, kappa) VH: QVQLQQSGPELVKPGASVKISCKASGNAFSNSWMNWVKQRPGKGLEWIGRVYSEDGDTQYNGKFRDKATLTADRSTSTAYMQLSSLTSEDSAVYFCARWLIYYGTYGAMDYWGQGTSVTVSS VL: DIQMTQTTSSLSASLGDRVTISCRASQDINNYLNWYHQKPDGTVKLLIYFTSRPYSGVPSRFSGSGSGTDYSLTISNLEQEDIATYFCQQGNTLPWTFGGGTKLEIKR is ____. 2.89
